OUTCOME MEASURE: melting point

// below: answered molecules
Task item: For the molecule shown here, `O=C(CO[C@@H]1COc2nc([N+](=O)[O-])cn2C1)N1CCN(c2ccc(F)cc2)CC1` , give the reported melting point.
Reply: 73 to 74 °C

Task item: Likewise for `O=C(CO[C@@H]1COc2nc([N+](=O)[O-])cn2C1)Nc1ccc(OC(F)(F)F)cc1` ?
Reply: 157 to 158 °C

Task item: Likewise for `O=C(CO[C@@H]1COc2nc([N+](=O)[O-])cn2C1)N1CCN(c2ccc(OC(F)(F)F)cc2)CC1` ?
Reply: 77 to 79 °C

Look at each molecule and report its melting point.
1. O=[N+]([O-])c1cn2c(n1)OC[C@@H](OCc1csc(-c3ccc(OC(F)(F)F)cc3)n1)C2
2. O=C(CO[C@@H]1COc2nc([N+](=O)[O-])cn2C1)N1CCC(c2nc3cc(OC(F)(F)F)ccc3[nH]2)CC1

Reply:
1. 140 to 141 °C
2. 131 to 132 °C

Task item: For the molecule shown here, `O=C(CO[C@@H]1COc2nc([N+](=O)[O-])cn2C1)NCc1ccc(OC(F)(F)F)cc1` , give the reported melting point.
Reply: 110 to 111 °C

* * *

Exercise: state measured melting point for each of the compounds provided.

Task item: For the compound shown here, `O=[N+]([O-])c1cn2c(n1)OC[C@@H](OCc1ccc(-c3nc4cc(OC(F)(F)F)ccc4[nH]3)cc1)C2` , give the reported melting point.
Reply: 98 to 99 °C

Task item: Likewise for `O=C(CO[C@@H]1COc2nc([N+](=O)[O-])cn2C1)Nc1nc(-c2ccc(OC(F)(F)F)cc2)cs1` ?
Reply: 120 to 121 °C

Task item: Likewise for `O=[N+]([O-])c1cn2c(n1)OC[C@@H](OCc1nc3ccc(C(F)(F)F)cc3[nH]1)C2` ?
Reply: 120 to 121 °C

Task item: Likewise for `O=C(CO[C@@H]1COc2nc([N+](=O)[O-])cn2C1)N1CCN(c2ccc(C(F)(F)F)cn2)CC1` ?
Reply: 189 to 190 °C

Look at each compound and report its melting point.
1. O=C(CO[C@@H]1COc2nc([N+](=O)[O-])cn2C1)Nc1nc2ccc(OC(F)(F)F)cc2s1 (stereo in doubt)
2. O=[N+]([O-])c1cn2c(n1)OCC(OCc1ccc(-c3nc4cc(OC(F)(F)F)ccc4o3)cc1)C2 (centres unmarked)
3. O=[N+]([O-])c1cn2c(n1)OCC(OCc1ccc(OCc3ccc(F)cc3)cc1)C2 (centres unmarked)
4. O=[N+]([O-])c1cn2c(n1)OC[C@@H](OCc1nc3ccc(OC(F)(F)F)cc3[nH]1)C2

Reply:
["89 to 90 °C", "187 to 188 °C", "150.2 to 150.9 °C", "99 to 100 °C"]
